molecular target: human orexin 2 receptor (Homo sapiens (Human)); assay: Human orexin 2 receptor radioligand binding ([3H]-EMPA); settings: HEK293 stably expressing human orexin 2 receptor; [3H]-EMPA; apparent Ki; read-out: hOX2 Ki
Sequence (O43614 whole entry): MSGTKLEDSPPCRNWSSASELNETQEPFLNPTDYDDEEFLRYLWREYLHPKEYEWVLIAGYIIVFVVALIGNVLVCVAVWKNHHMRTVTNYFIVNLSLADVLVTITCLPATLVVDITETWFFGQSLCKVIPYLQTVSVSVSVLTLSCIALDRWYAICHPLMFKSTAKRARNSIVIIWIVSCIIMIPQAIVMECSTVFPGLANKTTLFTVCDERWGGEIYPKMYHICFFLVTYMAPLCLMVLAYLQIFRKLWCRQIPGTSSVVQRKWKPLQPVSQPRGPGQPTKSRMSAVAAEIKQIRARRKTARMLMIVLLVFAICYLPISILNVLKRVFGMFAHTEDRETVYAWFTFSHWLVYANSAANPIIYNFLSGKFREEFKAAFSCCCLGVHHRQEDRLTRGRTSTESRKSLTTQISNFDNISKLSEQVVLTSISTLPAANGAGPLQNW
Classify by Ki. Ranges: band 1: < 0.6 µM; band 2: ≥ 0.6 µM and < 2 µM; band 3: ≥ 2 µM

Answered examples (5):
COc1c(F)cccc1C(=O)N1CCC[C@@H](Nc2ccc(C(F)(F)F)cn2)[C@H]1C (racemic) [Example 54] : band 3
C[C@H]1[C@H](Oc2ncc(C(F)(F)F)cn2)CCCN1C(=O)c1ccccc1-n1nccn1 [Example 103] : band 3
C[C@H]1[C@H](Nc2cnc(C(F)(F)F)cn2)CCCN1C(=O)c1cc(F)ccc1-n1nccn1 [Example 90] : band 1
Cc1cc(C)nc(N[C@@H]2CCCN(C(=O)c3c(F)cccc3-c3ncccn3)[C@H]2C)n1 (racemic) [Example 2] : band 1
COc1c(F)cccc1C(=O)N1CCC[C@@H](Nc2nc3cc(Cl)ccc3o2)[C@H]1C (racemic) [Example 62] : band 3

Band of Cc1ccc(C(=O)N2CCC[C@@H](Nc3ccc(Cl)cn3)[C@@H]2C)c(-n2nccn2)c1 [Example 99] ?
band 2

Band of Cc1cnc(C(=O)N2CCC[C@@H](Nc3ccc(Br)cn3)[C@@H]2C)c(-c2ncco2)c1 [Example 80] ?
band 3

Band of C[C@H]1[C@H](Nc2nccc(-c3ccccc3)n2)CCCN1C(=O)c1ccccc1-n1nccn1 (racemic) [Example 51] ?
band 3

Band of Cc1ccc(C(=O)N2CCC[C@@H](Nc3nc4ccccc4o3)[C@@H]2C)c(-n2ccnn2)n1 [Example 76] ?
band 2

Band of Cc1cnc(C(=O)N2CCC[C@@H](Oc3ncc(C(F)(F)F)cn3)[C@@H]2C)c(-n2nccn2)c1 [Example 101] ?
band 3
